These measurements were taken from patent US20250199015A1.

- Measured on: human OATP1B1 (Homo sapiens)
- Sequence (Q9Y6L6 whole entry): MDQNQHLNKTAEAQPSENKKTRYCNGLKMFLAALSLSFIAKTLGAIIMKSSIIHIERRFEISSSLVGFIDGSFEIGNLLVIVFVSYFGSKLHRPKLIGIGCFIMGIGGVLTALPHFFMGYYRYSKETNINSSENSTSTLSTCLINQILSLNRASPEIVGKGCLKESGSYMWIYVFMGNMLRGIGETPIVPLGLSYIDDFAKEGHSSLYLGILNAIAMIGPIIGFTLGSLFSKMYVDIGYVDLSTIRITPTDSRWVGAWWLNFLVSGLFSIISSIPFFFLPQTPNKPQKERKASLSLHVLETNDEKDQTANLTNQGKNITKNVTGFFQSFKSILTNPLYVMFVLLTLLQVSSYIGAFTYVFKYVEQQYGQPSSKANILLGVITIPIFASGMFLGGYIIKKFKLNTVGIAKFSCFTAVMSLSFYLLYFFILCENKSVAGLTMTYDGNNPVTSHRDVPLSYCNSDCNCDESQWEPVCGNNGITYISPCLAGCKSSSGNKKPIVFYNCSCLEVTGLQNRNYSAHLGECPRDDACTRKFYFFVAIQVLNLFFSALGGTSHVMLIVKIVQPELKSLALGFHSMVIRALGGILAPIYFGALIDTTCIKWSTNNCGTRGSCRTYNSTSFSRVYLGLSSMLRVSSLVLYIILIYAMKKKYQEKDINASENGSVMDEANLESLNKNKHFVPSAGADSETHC
- Assay summary: SLC transporter inhibition in HEK293 cells
Measured attribute: pIC50
// pIC50: -log10(molar conc.)

[in] For human OATP1B1 (Homo sapiens), provide pIC50 of NS(=O)(=O)c1ccc(Nc2ncc3cc4n(c3n2)C2(CCCCC2)C(=O)NN4)cc1 [Compound I] please.
[out] 5.42

====

- Assay summary: GLP 28-day oral toxicity and toxicokinetics study
- Type: in vivo, Sprague Dawley rats
- Condition summary: female, Sprague Dawley, rat, in vivo, po, 1000 mg/kg/day, Tmax
Measured attribute: Tmax
Kindly report the value followed by its unit.

[in] What value of measured Tmax is listed for NS(=O)(=O)c1ccc(Nc2ncc3cc4n(c3n2)C2(CCCCC2)C(=O)NN4)cc1 ?
[out] 30 min

====

- Assay summary: Thermodynamic solubility in pH 1, 4.5 and 6.8 buffers
- Assay type: physicochemical
- Condition summary: pH 1 hydrochloride buffer, 25 °C, pH 1, simulated gastric fluid, thermodynamic from solid, pH 1 (HCl) buffer, 24 hours
Structures can show the parent of a compound that is named as a salt.
Measured attribute: solubility at 24 h (µg/mL)
Field: numeric (µg/mL). Do not append units.

[in] Quick one: solubility at 24 h of NS(=O)(=O)c1ccc(Nc2ncc3cc4n(c3n2)C2(CCCCC2)C(=O)NN4)cc1 [HCl Pattern 1] ?
[out] 3.8

====

- Assay summary: GLP 28-day oral toxicity and toxicokinetics study
- Assay type: in vivo, Beagle dogs
- Condition summary: male, Beagle, dog, in vivo, po, 100 mg/kg/day, Cmax
Measured attribute: Cmax

[in] Looking for the measured Cmax of NS(=O)(=O)c1ccc(Nc2ncc3cc4n(c3n2)C2(CCCCC2)C(=O)NN4)cc1 , can you help?
[out] 459 ng/mL

====

- Measured on: human OAT3 (Homo sapiens, UniProt Q8TCC7)
- Construct: expressed in transfected cells; host or cells: HEK293
- Sequence (Q8TCC7 whole entry): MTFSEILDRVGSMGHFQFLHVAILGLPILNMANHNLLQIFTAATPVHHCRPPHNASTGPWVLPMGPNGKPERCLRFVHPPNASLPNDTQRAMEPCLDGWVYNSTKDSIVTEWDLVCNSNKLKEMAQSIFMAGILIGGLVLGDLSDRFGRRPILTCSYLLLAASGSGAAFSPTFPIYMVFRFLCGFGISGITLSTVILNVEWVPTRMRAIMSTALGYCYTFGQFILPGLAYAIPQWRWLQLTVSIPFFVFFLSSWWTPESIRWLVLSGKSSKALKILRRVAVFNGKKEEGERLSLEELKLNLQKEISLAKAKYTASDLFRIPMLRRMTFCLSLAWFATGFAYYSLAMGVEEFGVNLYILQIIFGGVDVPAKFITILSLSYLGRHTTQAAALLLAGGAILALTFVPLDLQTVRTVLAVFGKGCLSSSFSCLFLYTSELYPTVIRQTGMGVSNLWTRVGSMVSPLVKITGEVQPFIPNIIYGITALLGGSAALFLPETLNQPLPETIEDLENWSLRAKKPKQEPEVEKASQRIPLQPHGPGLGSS
- Assay summary: SLC transporter inhibition in HEK293 cells
- Assay type: in vitro ADME
- Condition summary: OAT3, HEK293 cells; read-out: IC50
Measured attribute: pIC50
Interpret pIC50 as the negative base-10 log of the concentration measured in mol/L.

[in] Form entry - test system: human OAT3 (Homo sapiens, UniProt Q8TCC7); read-out: pIC50; molecule: NS(=O)(=O)c1ccc(Nc2ncc3cc4n(c3n2)C2(CCCCC2)C(=O)NN4)cc1
[out] 5.40

====

- Assay summary: GLP 28-day oral toxicity and toxicokinetics study
- Type: in vivo, Sprague Dawley rats
- Condition summary: male, Sprague Dawley, rat, in vivo, po, 300 mg/kg/day, AUC0-24
Measured attribute: AUC(0-t) (ng·h/mL)
Numbers only here, please. The scale is ng·h/mL.

[in] I have this molecule here, NS(=O)(=O)c1ccc(Nc2ncc3cc4n(c3n2)C2(CCCCC2)C(=O)NN4)cc1 , and I need its recorded AUC(0-t).
[out] 10700

====

- Measured on: Human recombinant COX1 (PTGS1) (Homo sapiens, UniProt P23219)
- Sequence (P23219 24-599): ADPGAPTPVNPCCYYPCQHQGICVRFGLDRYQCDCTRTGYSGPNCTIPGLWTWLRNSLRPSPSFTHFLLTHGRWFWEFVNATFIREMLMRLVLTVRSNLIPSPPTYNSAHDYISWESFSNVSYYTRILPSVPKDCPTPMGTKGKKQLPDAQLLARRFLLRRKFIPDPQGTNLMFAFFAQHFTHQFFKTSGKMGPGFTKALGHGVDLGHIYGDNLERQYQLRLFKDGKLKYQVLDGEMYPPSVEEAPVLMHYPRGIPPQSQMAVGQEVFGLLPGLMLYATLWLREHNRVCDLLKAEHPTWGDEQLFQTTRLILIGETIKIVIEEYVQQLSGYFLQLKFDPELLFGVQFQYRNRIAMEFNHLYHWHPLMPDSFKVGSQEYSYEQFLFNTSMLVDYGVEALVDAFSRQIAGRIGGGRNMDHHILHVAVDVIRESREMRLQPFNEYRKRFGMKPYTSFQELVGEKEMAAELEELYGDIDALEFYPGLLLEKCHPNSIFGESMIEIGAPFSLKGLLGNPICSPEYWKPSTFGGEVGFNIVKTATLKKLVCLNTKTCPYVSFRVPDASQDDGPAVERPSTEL
- Assay summary: COX1 enzyme inhibition (fluorimetry)
Measured attribute: pIC50
// pIC50 is dimensionless: -log10 of concentration (M)

[in] # query: pIC50 | item NS(=O)(=O)c1ccc(Nc2ncc3cc4n(c3n2)C2(CCCCC2)C(=O)NN4)cc1 | system: Human recombinant COX1 (PTGS1) (Homo sapiens, UniProt P23219)
[out] 6.59

====

- Assay summary: Nonclinical pharmacokinetics (IV and PO)
- Condition summary: dog, in vivo, dogs
- Experimental: Nonclinical PK studies were conducted for single dose of Compound I in rats, mice, and dogs, and for repeated doses of Compound I in rats and dogs. […] The relationship between dose level and systemic exposure was generally similar in male and female animals.
Measured attribute: half-life

[in] Any idea what its half-life is? The compound is NS(=O)(=O)c1ccc(Nc2ncc3cc4n(c3n2)C2(CCCCC2)C(=O)NN4)cc1
[out] ≤ 6 h

====

- Assay summary: GLP 28-day oral toxicity and toxicokinetics study
- Format: in vivo, Sprague Dawley rats
- Condition summary: male, Sprague Dawley, rat, in vivo, po, 300 mg/kg/day, Tmax
Measured attribute: Tmax (min)
Return type: number; implicit unit min.

[in] Fill in: Tmax of NS(=O)(=O)c1ccc(Nc2ncc3cc4n(c3n2)C2(CCCCC2)C(=O)NN4)cc1 [Compound I] is ___
[out] 30

====

- Assay summary: GLP 28-day oral toxicity and toxicokinetics study
- Format: in vivo, Sprague Dawley rats
- Condition summary: female, Sprague Dawley, rat, in vivo, po, 1000 mg/kg/day, plasma Cmax
Measured attribute: Cmax (ng/mL)
API: value field is a number in ng/mL; no unit string.

[in] Query (compound): NS(=O)(=O)c1ccc(Nc2ncc3cc4n(c3n2)C2(CCCCC2)C(=O)NN4)cc1 ; field requested: Cmax
[out] 1390

====

- Assay summary: GLP 28-day oral toxicity and toxicokinetics study
- Format: in vivo, Sprague Dawley rats
- Condition summary: female, Sprague Dawley, rat, in vivo, po, 300 mg/kg/day, Tmax
Measured attribute: Tmax (min)
Kindly provide the numeric value in min only, without the unit symbol.

[in] Reported Tmax for NS(=O)(=O)c1ccc(Nc2ncc3cc4n(c3n2)C2(CCCCC2)C(=O)NN4)cc1 [Compound I] : what is it?
[out] 30

====

- Measured on: hERG current (Homo sapiens, UniProt Q12809)
- Construct: expressed in transfected cells; host or cells: HEK293 (stably transfected)
- Sequence (Q12809 whole entry): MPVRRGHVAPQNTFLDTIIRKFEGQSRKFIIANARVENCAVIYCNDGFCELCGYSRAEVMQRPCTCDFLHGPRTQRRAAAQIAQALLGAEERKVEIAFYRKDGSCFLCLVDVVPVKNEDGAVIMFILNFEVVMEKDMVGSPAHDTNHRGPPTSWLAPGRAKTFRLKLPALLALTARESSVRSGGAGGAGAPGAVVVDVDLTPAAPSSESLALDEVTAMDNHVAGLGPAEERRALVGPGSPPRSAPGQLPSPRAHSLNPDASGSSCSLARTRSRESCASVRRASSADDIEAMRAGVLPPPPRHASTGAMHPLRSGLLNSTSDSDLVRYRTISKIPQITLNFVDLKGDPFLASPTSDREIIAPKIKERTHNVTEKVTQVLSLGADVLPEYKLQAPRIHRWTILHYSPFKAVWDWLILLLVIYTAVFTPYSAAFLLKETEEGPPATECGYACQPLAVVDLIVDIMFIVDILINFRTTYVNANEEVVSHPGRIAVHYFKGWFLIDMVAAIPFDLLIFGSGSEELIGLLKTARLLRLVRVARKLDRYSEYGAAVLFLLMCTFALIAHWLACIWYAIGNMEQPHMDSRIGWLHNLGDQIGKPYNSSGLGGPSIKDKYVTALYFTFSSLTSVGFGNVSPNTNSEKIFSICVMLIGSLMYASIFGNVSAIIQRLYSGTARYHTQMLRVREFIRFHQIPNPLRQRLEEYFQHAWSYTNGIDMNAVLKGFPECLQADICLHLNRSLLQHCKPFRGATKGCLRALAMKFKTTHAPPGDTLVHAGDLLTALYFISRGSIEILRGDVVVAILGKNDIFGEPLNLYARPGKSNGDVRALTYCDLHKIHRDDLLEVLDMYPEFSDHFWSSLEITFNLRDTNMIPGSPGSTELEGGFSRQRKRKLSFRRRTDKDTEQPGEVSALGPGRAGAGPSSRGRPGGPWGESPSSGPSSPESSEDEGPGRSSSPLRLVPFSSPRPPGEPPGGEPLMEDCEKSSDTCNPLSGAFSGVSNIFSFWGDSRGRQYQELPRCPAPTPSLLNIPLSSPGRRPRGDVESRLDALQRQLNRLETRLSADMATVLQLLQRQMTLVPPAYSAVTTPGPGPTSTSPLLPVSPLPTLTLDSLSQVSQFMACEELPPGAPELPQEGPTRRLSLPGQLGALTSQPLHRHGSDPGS
- Assay summary: hERG whole-cell patch clamp in HEK293 cells
- Type: cell-based
- Condition summary: 37±1° C.; read-out: hERG current amplitude IC50
Measured attribute: IC50 (µM)
Give the value, in units of µM, as a plain number.

[in] Hello, I am looking for reported IC50 with hERG current (Homo sapiens, UniProt Q12809) for NS(=O)(=O)c1ccc(Nc2ncc3cc4n(c3n2)C2(CCCCC2)C(=O)NN4)cc1 . Could you help?
[out] 8.6

====

- Assay summary: GLP 28-day oral toxicity and toxicokinetics study
- Assay type: in vivo, Sprague Dawley rats
- Condition summary: female, Sprague Dawley, rat, in vivo, po, 100 mg/kg/day, AUC0-24
Measured attribute: AUC(0-t) (ng·h/mL)
Write it as a number; the unit ng·h/mL goes unstated.

[in] I have this compound here, NS(=O)(=O)c1ccc(Nc2ncc3cc4n(c3n2)C2(CCCCC2)C(=O)NN4)cc1 , and I need its recorded AUC(0-t).
[out] 9580

====

- Measured on: CYP3A4 (midazolam as substrate) (Homo sapiens, UniProt P08684)
- Construct: human liver microsomes were incubated in the appropriate isoform-specific probe substrate
- Sequence (P08684 whole entry, canonical isoform): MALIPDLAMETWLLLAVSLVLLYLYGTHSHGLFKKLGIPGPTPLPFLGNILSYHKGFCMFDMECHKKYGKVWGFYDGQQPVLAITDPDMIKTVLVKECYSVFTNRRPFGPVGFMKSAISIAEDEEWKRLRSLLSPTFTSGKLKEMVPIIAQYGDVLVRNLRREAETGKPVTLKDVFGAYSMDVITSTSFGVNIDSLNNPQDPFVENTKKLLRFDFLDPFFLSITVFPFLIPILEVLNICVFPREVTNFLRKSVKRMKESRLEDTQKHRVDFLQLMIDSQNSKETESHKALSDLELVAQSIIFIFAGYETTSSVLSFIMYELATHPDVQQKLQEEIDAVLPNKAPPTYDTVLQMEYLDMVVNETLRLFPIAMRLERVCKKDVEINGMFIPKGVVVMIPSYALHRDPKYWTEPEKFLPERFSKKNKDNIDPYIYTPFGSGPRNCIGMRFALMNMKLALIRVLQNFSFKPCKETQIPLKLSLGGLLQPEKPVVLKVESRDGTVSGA
- Assay summary: CYP inhibition in human liver microsomes
- Condition summary: CYP3A4, substrate Midazolam, human liver microsomes
Measured attribute: pIC50
Note: pIC50 values are expressed as the negative base-10 logarithm of concentration in M.

[in] Recorded pIC50 for NS(=O)(=O)c1ccc(Nc2ncc3cc4n(c3n2)C2(CCCCC2)C(=O)NN4)cc1 , please?
[out] 4.61

====

- System: MCF7PDRC15-1 palbociclib resistant breast cancer cells
- Assay summary: CellTiter-Glo viability, palbociclib-resistant MCF7
- Format: cell-based
- Condition summary: Homo sapiens, MCF7, read-out: Cell Viability IC50, Compound I alone, absence of palbociclib
Measured attribute: IC50 (nM)
A number alone suffices; assume nM.

[in] Give recorded IC50 with MCF7PDRC15-1 palbociclib resistant breast cancer cells for the following compound: NS(=O)(=O)c1ccc(Nc2ncc3cc4n(c3n2)C2(CCCCC2)C(=O)NN4)cc1 [Compound I]
[out] 995

====

- Assay summary: GLP 28-day oral toxicity and toxicokinetics study
- Type: in vivo, Sprague Dawley rats
- Condition summary: male, Sprague Dawley, rat, in vivo, po, 1000 mg/kg/day, AUC0-24
Measured attribute: AUC(0-t)
I'd appreciate it if you wrote the number followed by its unit.

[in] Recorded AUC(0-t) for NS(=O)(=O)c1ccc(Nc2ncc3cc4n(c3n2)C2(CCCCC2)C(=O)NN4)cc1 , please?
[out] 11300 ng·h/mL

====

- Assay summary: GLP 28-day oral toxicity and toxicokinetics study
- Format: in vivo, Beagle dogs
- Condition summary: male, Beagle, dog, in vivo, po, plasma AUC0-24
Measured attribute: AUC(0-t) (ng·h/mL)
Entry rule: numbers only, all in ng·h/mL.

[in] Value lookup for AUC(0-t); key = NS(=O)(=O)c1ccc(Nc2ncc3cc4n(c3n2)C2(CCCCC2)C(=O)NN4)cc1
[out] 2460

====

- Assay summary: GLP 28-day oral toxicity and toxicokinetics study
- Type: in vivo, Beagle dogs
- Condition summary: female, Beagle, dog, in vivo, po, 500 mg/kg/day, Cmax
Measured attribute: Cmax (ng/mL)
Write the value in ng/mL as a bare number.

[in] # Cmax lookup, item NS(=O)(=O)c1ccc(Nc2ncc3cc4n(c3n2)C2(CCCCC2)C(=O)NN4)cc1
[out] 919

====

- Measured on: MATE1 (Homo sapiens, UniProt Q96FL8)
- Sequence (Q96FL8 whole entry): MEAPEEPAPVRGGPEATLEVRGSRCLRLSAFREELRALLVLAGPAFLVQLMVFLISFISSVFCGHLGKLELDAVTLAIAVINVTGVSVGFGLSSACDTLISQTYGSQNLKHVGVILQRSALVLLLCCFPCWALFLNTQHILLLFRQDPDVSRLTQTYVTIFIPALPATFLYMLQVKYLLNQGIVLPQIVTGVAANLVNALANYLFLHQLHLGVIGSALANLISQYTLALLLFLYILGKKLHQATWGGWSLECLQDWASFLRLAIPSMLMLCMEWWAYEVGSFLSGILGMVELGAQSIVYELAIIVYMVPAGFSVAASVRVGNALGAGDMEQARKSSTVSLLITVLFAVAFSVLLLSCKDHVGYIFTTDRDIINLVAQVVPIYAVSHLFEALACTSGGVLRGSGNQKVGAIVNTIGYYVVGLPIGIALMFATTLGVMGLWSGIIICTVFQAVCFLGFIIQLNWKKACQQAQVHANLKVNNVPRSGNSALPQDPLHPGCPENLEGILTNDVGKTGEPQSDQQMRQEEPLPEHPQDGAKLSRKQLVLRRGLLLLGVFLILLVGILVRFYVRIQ
- Assay summary: SLC transporter inhibition in HEK293 cells
- Condition summary: MATE1 IC50
Measured attribute: IC50

[in] What does the data say about its IC50? Entry: NS(=O)(=O)c1ccc(Nc2ncc3cc4n(c3n2)C2(CCCCC2)C(=O)NN4)cc1
[out] 13.3 µM
